Data origin, for the record: ChEMBL document CHEMBL3232926

Test: AUC (0 to infinity) in C57BL/6J mouse at 3 mg/kg, po
Type: ADME, organism-based
Design: time infinity, dose 3 mg/kg, route oral
Conditions: plasma
Exercise: for every item that follows, state its recorded AUC(0-inf).
Write the value in µg·h/mL as a bare number.

Can you share its AUC(0-inf)? I mean this molecule: `N[C@@H](CC(=O)N1CCn2c(nnc2C(F)(F)F)C1)Cc1cc(F)c(F)cc1F`
0.56

Now consider `NC[C@H]1CN(CCc2ccc3c(c2)OCO3)C(=O)C[C@@H]1c1cc(F)ccc1F` and answer again.
1.01

====

Exercise: for every item that follows, state its recorded Cmax.
Experiment: Cmax in C57BL/6J mouse at 3 mg/kg, po
Type: ADME, organism-based
Parameters: dose 3 mg/kg, route oral
Details: in vivo
Write the value in µg/mL as a bare number.

Can you share its Cmax? I mean this molecule: `N[C@@H](CC(=O)N1CCn2c(nnc2C(F)(F)F)C1)Cc1cc(F)c(F)cc1F`
0.31

Now consider `NC[C@H]1CN(CCc2ccc3c(c2)OCO3)C(=O)C[C@@H]1c1cc(F)ccc1F` and answer again.
0.42

====

Assay: AUC in C57BL/6J mouse at 3 mg/kg, iv
Format: ADME, organism-based
Set-up: dose 3 mg/kg, route intravenous
Settings: plasma
Attribute measured: AUC (ng·h/mL)
Write the value in ng·h/mL as a bare number.

Can you share its AUC? I mean this compound: `NC[C@H]1CN(CCc2ccc3c(c2)OCO3)C(=O)C[C@@H]1c1cc(F)ccc1F`
1270

Now consider `N[C@@H](CC(=O)N1CCn2c(nnc2C(F)(F)F)C1)Cc1cc(F)c(F)cc1F` and answer again.
740

====

Assay: Elimination rate constant in C57BL/6J mouse at 3 mg/kg, po
Assay type: ADME, organism-based
Design: dose 3 mg/kg, route oral
Details: in vivo
Exercise: for every item that follows, state its recorded k el.
Write the value in s⁻¹ as a bare number.

Can you share its k el? I mean this compound: N[C@@H](CC(=O)N1CCn2c(nnc2C(F)(F)F)C1)Cc1cc(F)c(F)cc1F [SITAGLIPTIN]
0.000233

Now consider `NC[C@H]1CN(CCc2ccc3c(c2)OCO3)C(=O)C[C@@H]1c1cc(F)ccc1F` and answer again.
3.33e-05
